B1: Membrane-associated guanylate kinase, WW and PDZ domain-containing protein 2, residues 601 to 682; numbered along this chain, Q86UL8 (parent)
chain: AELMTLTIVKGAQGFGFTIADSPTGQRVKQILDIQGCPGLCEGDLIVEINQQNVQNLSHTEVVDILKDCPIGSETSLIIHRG

variants of: B1; test: abundance fitness (aPCA) (normalised: wild type 0, dead -1); higher = more abundant; growth selection in yeast, the domain comes from the species named; settings: Homo sapiens
Below is a list of entries, each paired with its recorded abundance fitness value.
Form: value (number only, do not type unit).

Some solved cases for reference:
> print(dat)
   mutation.code  reported.value
1           I34A          -0.026
2           C69Q          -0.125
3           E74Q          -0.074
4           S73P          -0.048
5           A20K          -0.026
6           G43V          -0.761

Please list abundance fitness recorded for the variant Q35T 0.209

Please list abundance fitness recorded for the variant I49C -0.094

Please list abundance fitness recorded for the variant Q55I -0.02
